Data provenance: the supplement of paper PMC6555819

// PBM binding z-score lookup, one value per entry
Test system: FXR:RXRa (NR concentration 270 nM, RXRa partner concentration 90 nM)
Test: PBM binding z-score (relative to random genomic background probes); higher = stronger binding; sequences stand for … in GC…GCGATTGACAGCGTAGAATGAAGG
Note: the reply should be a number with no unit written.

Record excerpt, results attached:
# BIOPOLYMER_SEQUENCE, PBM binding z-score
rows = [
    ("CAAACTAGTTCACAGAGGTCAAAGTCCGTGCGTA", 5.85),
    ("GCAACTGGGGCATCAGCAGGTTACCATAACTTAA", -0.117),
    ("TCTATCAGTTGATTAGGGCAACCGAAACAGCGGA", -0.144),
]

Lab note: CCTAGCAGGCCAATCTGGGTCACTGAAGGCTTGA gave PBM binding z-score of 1.19

Lab note: GGAACGAGGGCAAGTTGATATCAGAGTTTGATGG gave PBM binding z-score of 0.903

Lab note: AGTCAAAGTTCACTAGGTATCGTAAGATTCAGCT gave PBM binding z-score of 4.92

====

System: PPARg homodimer (NR concentration 180 nM)
Experiment: PBM binding z-score (relative to random genomic background probes); higher = stronger binding; sequences stand for … in GC…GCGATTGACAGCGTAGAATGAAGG
Lab note: compare PBM binding z-score against 0.6. Equal or greater, write 1. Smaller, write -1.

Solved entries:
# BIOPOLYMER_SEQUENCE, TEST_SYSTEM, ASSIGNED_LABEL
measured = [
    ("CGTCCAAGGTCAGCAGGTCAATGAAAGCGACGTG", "PPARg homodimer (NR concentration 180 nM)", 1),
    ("CGTCCAAGGTCAACGTCAGTGAAAGAGACTCGAA", "PPARg homodimer (NR concentration 180 nM)", 1),
    ("CGTCCAAGGTCATAGGAAGTCAGTGAAGACAGAT", "PPARg homodimer (NR concentration 180 nM)", 1),
    ("TCTTGTAGGTCAGCAGGTTAAGAAAGCTGGCCAA", "PPARg homodimer (NR concentration 180 nM)", 1),
    ("CAAACTAGGTCACAGAGGTCAAAGGCCGTGCGTA", "PPARg homodimer (NR concentration 180 nM)", 1),
]

Request: Entry AGTCAAATTTCAGGACGAGGTAACGTAAAGCACG : is its PBM binding z-score no less than 0.6?
Response: -1

Request: Entry ACCTACGGGTCAACGAGGTTATAGCACGCGTATA : is its PBM binding z-score no less than 0.6?
Response: 1

Request: Entry CGTCCAAGGTCAGGAGGTCAGTGAAAGCGACGTG : is its PBM binding z-score no less than 0.6?
Response: 1

Request: Entry ACTAGCAGGCCAAGGGTCACACAAGATTAGTCCG : is its PBM binding z-score no less than 0.6?
Response: 1

Request: Entry TGTAAAAGTTCAAAGGTAACGTAAGTATCCACAC : is its PBM binding z-score no less than 0.6?
Response: 1

Request: Entry CCTACTGGGCCACGAAAGTTCATTGATTCAGTGA : is its PBM binding z-score no less than 0.6?
Response: 1

Request: Entry CTCGAAAGGTGGGTTGAGGTGAGTATACGGATAA : is its PBM binding z-score no less than 0.6?
Response: 1

Request: Entry TCTAGTTGGTCACGGAGGTCACACATGACGGGTA : is its PBM binding z-score no less than 0.6?
Response: 1
